Data credit: paper PMC8809517

measuredTarget: T1, GFP-9S library array, motif 4 ND D124Q (synthetic construct, D124Q)
T1 chain: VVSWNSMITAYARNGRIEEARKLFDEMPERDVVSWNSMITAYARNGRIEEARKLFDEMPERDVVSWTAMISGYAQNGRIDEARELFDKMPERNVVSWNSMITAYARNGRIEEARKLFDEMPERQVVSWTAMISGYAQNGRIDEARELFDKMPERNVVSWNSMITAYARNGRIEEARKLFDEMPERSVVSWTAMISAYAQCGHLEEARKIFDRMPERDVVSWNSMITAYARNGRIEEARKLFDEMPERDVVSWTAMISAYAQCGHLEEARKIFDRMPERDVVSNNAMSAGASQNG
measurementProtocol: high-throughput RNA pulldown from lysate on Ni-NTA beads; HRP: 50 mM Tris pH 8, 150 mM NaCl, 1 mM beta-mercaptoethanol, 50 ug/ml BSA, 3 ug/ml yeast RNA, 0.5% heparin; ITC and FP: Tris pH 8, 200 mM KCl, 5% glycerol; MST: 50 mM Tris pH 8, 200 mM NaCl, 1 mM DTT, BSA, heparin, 0.05% Tween 20
appliedConditions: tags: N-terminal His-eGFP; label: 5' Cy5
assayMetric: pKd
In plain terms, pKd is the concentration in mol/L turned into minus its base-10 logarithm.

Note down pKd recorded for AUUAGACGUGA (ssRNA) [Cy5-rpoA-G]
6.05

Note down pKd recorded for AUUACACGUGA (ssRNA) [Cy5-rpoA]
7.17
